- measurement setup: in ethanol, 283.15 K
observable: solubility (mole fraction)

Cc1cccc2sc(NN)nc12 = 0.00131

====

- measurement setup: in n-butanol, 283.15 K
observable: solubility (mole fraction)

Cc1cccc2sc(NN)nc12 = 0.00216

====

- measurement setup: in ethyl acetate, 283.15 K
observable: solubility (mole fraction)

Cc1cccc2sc(NN)nc12 = 0.00569

====

- measurement setup: in methanol, 293.15 K
observable: solubility (mole fraction)

Cc1cccc2sc(NN)nc12 = 0.00151

====

- measurement setup: in ethyl acetate, 303.15 K
observable: solubility (mole fraction)

Cc1cccc2sc(NN)nc12 = 0.0124

====

- measurement setup: in isopropanol, 288.15 K
observable: solubility (mole fraction)

Cc1cccc2sc(NN)nc12 = 0.00191

====

- measurement setup: in acetone, 313.15 K
observable: solubility (mole fraction)

Cc1cccc2sc(NN)nc12 = 0.0391

====

- measurement setup: in isopropanol, 298.15 K
observable: solubility (mole fraction)

Cc1cccc2sc(NN)nc12 = 0.00288

====

- measurement setup: in n-propanol, 288.15 K
observable: solubility (mole fraction)

Cc1cccc2sc(NN)nc12 = 0.00218

====

- measurement setup: in ethyl acetate, 288.15 K
observable: solubility (mole fraction)

Cc1cccc2sc(NN)nc12 = 0.00696

====

- measurement setup: in n-butanol, 313.15 K
observable: solubility (mole fraction)

Cc1cccc2sc(NN)nc12 = 0.00755

====

- measurement setup: in ethyl acetate, 298.15 K
observable: solubility (mole fraction)

Cc1cccc2sc(NN)nc12 = 0.0101

====

- measurement setup: in water, 303.15 K
observable: solubility (mole fraction)

Cc1cccc2sc(NN)nc12 = 3.21e-05

====

- measurement setup: in ethyl acetate, 273.15 K
observable: solubility (mole fraction)

Cc1cccc2sc(NN)nc12 = 0.00359

====

- measurement setup: in methanol, 318.15 K
observable: solubility (mole fraction)

Cc1cccc2sc(NN)nc12 = 0.00422

====

- measurement setup: in water, 313.15 K
observable: solubility (mole fraction)

Cc1cccc2sc(NN)nc12 = 5.05e-05

====

- measurement setup: in methanol, 278.15 K
observable: solubility (mole fraction)

Cc1cccc2sc(NN)nc12 = 0.000758
